// data source = PubChem BioAssay

target: Torsin-1A (Homo sapiens)
run-description: small-molecule binders of mutant TOR1A in lysate, primary screen, cell lysate, small-molecule microarray, COS7 lysate, 635/667 nm fluorescence (AID 1150);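 note: score pools 667 nm emission and signal to noise measuring lysate protein binding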
test-context: COS7 hTOR1A mutant lysate, 635 nm fluorescence, higher = more signal
measure: composite z-score
Write the value as a bare number.

COc1ccc([C@H]2OC[C@@H]3CC4(CC=CC4)C(=O)N32)cc1 : -0.436

What value of composite z-score has been recorded for this entry: `O=C1O[C@@H](c2ccccc2)[C@@H](c2ccccc2)N2[C@@H](c3ccccc3OCCO)[C@]3(C(=O)Nc4ccc(C#CC5=CCCCC5)cc43)[C@@H](C(=O)Nc3nc4ccccc4s3)[C@H]12`
0.335

What value of measured composite z-score is listed for `CC(C)(C)OC(=O)CC[C@@]12N=C(c3ccc(OCCCO)cc3)O[C@@H]1c1ccccc1N(CCS(=O)(=O)c1ccccc1)C2=O` ?
0.537

Which composite z-score is reported for this compound? `O=C1O[C@H](c2ccccc2)[C@H](c2ccccc2)N2[C@H]1[C@@H](C(=O)NC[C@H](O)c1ccccc1)[C@]1(C(=O)Nc3ccccc31)[C@H]2c1ccc(OCCO)cc1`
0.492

Query: composite z-score; subject: `O=C1O[C@@H](c2ccccc2)[C@@H](c2ccccc2)N2[C@@H](c3ccc(OCCO)cc3)[C@]3(C(=O)Nc4ccccc43)[C@@H](C(=O)NC[C@H](O)c3ccccc3)[C@H]12`
0.14

Given the entry `C=C(/C(=C/C[C@@H](OC(C)=O)c1ccc(OCCO)cc1)c1cnc2ccccc2c1)C(C)C` , report its measured composite z-score.
0.576

---

Test system: Human papillomavirus type 1a E7 protein (residues 1-88)
run-description: HPV1a E7 small-molecule binders, primary screen, biochemical, small-molecule microarray, residues 1-88, 635 nm (AID 1129)
test-context: small-molecule microarray binding, fluorescence 635 nm; higher = more signal
composite z-score for assorted compounds
Form rule: numeric answer, no unit written next to it.

// solved cases for composite z-score follow
COc1ccc(C(O)C2C=CC3C(=O)NC(=O)C3N2Nc2ccccn2)c2ccccc12 (configuration not stated) : -0.609
CCOC(=O)C1=CCC(c2ccc(C)cc2)N(S(=O)(=O)c2ccc(C)cc2)C1 (configuration not stated) : 0.939
CCCC=C(CCC)[C@@H](NS(=O)(=O)c1cccs1)c1ccc(C(=O)OC)cc1 : 1.17
COC(=O)[C@@]1(Cc2ccc(F)cc2)[C@@H]2[C@@H](CC(=O)[C@H]2CC(=O)C(=O)N(C)C)CN1C(=O)c1ccccc1 : 1.24
Cc1ccc(C(C)CC(O)C2C=CC3C(=O)N(C)C(=O)C3N2NC(=O)OC(C)(C)C)o1 (configuration not stated) : 1.01

Would you mind telling me what composite z-score value was observed for `CCOC(=O)C[C@H]1[C@H](OC(=O)Cc2ccc3c(c2)OCO3)[C@@H](NC(=O)c2ccc(-c3ccccc3)cc2)c2cc(OCCCO)ccc2N1C(=O)Cc1ccc(OC)cc1` ?
0.516

Need composite z-score of `C=CCNC(=O)[C@@H]1[C@H]2C(=O)O[C@H](c3ccccc3)[C@H](c3ccccc3)N2[C@H](c2ccc(OCCO)cc2)[C@@]12C(=O)Nc1ccc(C#Cc3ccc(OC)cc3)cc12` , thanks.
1.18

---

target: Streptavidin (Streptomyces avidinii) (UniProt P22629)
Sequence (P22629 whole entry, looked up): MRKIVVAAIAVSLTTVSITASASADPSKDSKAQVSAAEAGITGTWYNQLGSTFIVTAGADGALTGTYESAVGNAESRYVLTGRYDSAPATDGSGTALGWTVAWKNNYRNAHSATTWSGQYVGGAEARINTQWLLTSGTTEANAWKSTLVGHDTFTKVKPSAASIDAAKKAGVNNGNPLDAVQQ
run-description: streptavidin binders on small-molecule microarray, primary screen, artefact control for SMM compound annotation, biophysical, 635/667 nm fluorescence (AID 1147);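 note: signal reflects streptavidin binding to arrayed compounds as a control protein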
test-context: streptavidin binding, higher = more signal
Reported composite z-score values for a set of compounds
Reply with the value as a number alone.

Example results:
COC(=O)[C@@]1(Cc2ccc(OC)cc2)[C@H]2c3cc(C(=O)N4CCCC4)n(Cc4ccc(OC)c(OC)c4)c3C[C@H]2CN1C(=O)c1ccccc1 : 2.03
COc1ccc(NN2C(C(O)c3ccc([N+](=O)[O-])cc3)C=CC3C(=O)N(C4CCCCC4)C(=O)C32)cc1 (stereo not given) : 1.99
Cc1ccc(S[C@]2(C(=O)NCCN3CCOCC3)CC(=O)N(Cc3ccccc3)[C@@H]2c2ccc(CO)cc2I)cc1 : -0.755
CCCCC=C[C@@H](NC(=O)Oc1cccc(C(F)(F)F)c1)c1ccccc1 : 1.84
C=C(COC)/C(=C/C[C@@H](OC(C)=O)c1ccc(OCCO)cc1)c1cc(C(=O)OC)ccc1OC : -0.0154
C[N+](C)(C)CCCCNC(=O)[C@H]1C[C@H]2C(=O)N[C@@H](Cc3ccccc3)C(=O)N2[C@H]1c1ccc(O)cc1 : -0.455
O=C(NCc1ccccc1)[C@@]1(CCS(=O)(=O)c2ccccc2)N=C(c2ccc(OCCCO)cc2)O[C@H]1c1ccccc1 : 1.8
COCCOC(=O)N1C(=O)[C@@]2(c3cc(C#CCNC(N)=O)ccc31)[C@H](C(=O)NC[C@H](O)c1ccccc1)[C@H]1C(=O)O[C@H](c3ccccc3)[C@H](c3ccccc3)N1[C@@H]2c1ccccc1OCCO : -0.198

Query: composite z-score; subject: COc1ccc(C(O)C2C=CC3C(=O)N(C)C(=O)C3N2N2CCCCC2)c2ccccc12 (stereo not given)
1.25

Could you tell me which composite z-score is on file for `C=CC[C@@]1(C(=O)N(C)C)N=C(c2ccc(OCCCO)cc2)O[C@@H]1c1ccccc1N=[N+]=[N-]` ?
1.28

Fill in: composite z-score of CCCCN1CC=CC23O[C@@H]4/C=C\CCC(C)OC(=O)C4[C@H]2C(=O)N(CCCCCO)[C@@H]3C1=O (stereo not given in full) is ___
-1.24

Form field: reported composite z-score of CC1CC/C=C\[C@H]2OC34C=CCN(C(C)(C)C)C(=O)[C@H]3N(CCCCCCO)C(=O)[C@@H]4C2C(=O)O1 (stereo not given in full)
-0.727
